Tested on: NBD1
Assay: Aggregation analysis of NBD1 thermal stability by differential static light scattering (DSLS)
Type: binding, Human
Settings: compound at 100 μM; ΔTagg versus DMSO control
endpoint: DSLS NBD1/3D Human Stability delta-T (° C.) @ 100 (μM)

OC(c1cccc(-c2nnc(Cc3ccccc3)[nH]2)c1)c1ccc2[nH]ccc2c1 (single isomer, unassigned) [Example 35B] = C (≤4° C.)
CC(O)(c1ccccc1)c1cnc(-c2cccc(Oc3ccc4[nH]ccc4c3S(C)(=O)=O)c2)[nH]1 (racemic) [Example 63] = A (T ≥8° C.)
O=C(Cc1c(Oc2cccc(-c3nnc(Cc4ccccc4)[nH]3)c2)ccc2[nH]ccc12)NS(=O)(=O)C(F)(F)F = A (T ≥8° C.)
O=C(O)c1c(Oc2cccc(-c3ncc(C(O)c4ccccc4)[nH]3)c2)ccc2[nH]ncc12 (stereo not shown) = C (≤4° C.)
